# Subject of test: steroid sulphatase (STS) (Homo sapiens)
# Construct: endogenous in cells
# Sequence (P08842 22-583): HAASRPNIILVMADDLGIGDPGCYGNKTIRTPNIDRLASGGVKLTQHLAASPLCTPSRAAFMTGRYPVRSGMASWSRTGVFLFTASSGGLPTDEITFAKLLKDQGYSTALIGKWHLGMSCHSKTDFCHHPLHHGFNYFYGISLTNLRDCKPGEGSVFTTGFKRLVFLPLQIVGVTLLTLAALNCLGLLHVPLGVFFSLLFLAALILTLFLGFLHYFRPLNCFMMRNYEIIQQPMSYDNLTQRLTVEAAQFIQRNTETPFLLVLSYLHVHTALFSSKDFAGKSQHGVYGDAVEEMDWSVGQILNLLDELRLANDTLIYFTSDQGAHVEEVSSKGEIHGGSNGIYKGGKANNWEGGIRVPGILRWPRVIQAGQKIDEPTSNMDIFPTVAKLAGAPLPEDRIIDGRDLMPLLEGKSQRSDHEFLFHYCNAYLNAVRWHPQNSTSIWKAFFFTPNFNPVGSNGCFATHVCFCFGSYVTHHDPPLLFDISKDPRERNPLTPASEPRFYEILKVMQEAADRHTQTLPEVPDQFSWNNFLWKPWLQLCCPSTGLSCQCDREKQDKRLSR
# Test description: IC50 for steroid sulphatase inhibition measured in JEG-3 cells
Property label: IC50

Please give the documented IC50 of CCCN1C(=O)CC2C3CCc4cc(OS(N)(=O)=O)ccc4C3CC[C@]2(C)C1=O (stereo partly shown)
180 pM

Data provenance: patent US7968561B2
